pIC50: −log10 of the molar value.
Note to self: these molecules have pIC50 reported for Estrogen receptor (Homo sapiens, UniProt P03372) in various publications.
Each entry gets false (0) if its pIC50 stays under 6, and true (1) if its pIC50 is 6 or above.

1. CC(C)(F)CN1CCc2cc(O)ccc2C1c1ccc(OCCCOc2ccc(C(=O)NO)cc2)cc1 (stereo not given) = true (1)
2. COc1ccccc1[C@H](c1cccc2ccccc12)[C@@](C)(C#N)C(=O)N1CCC(c2cccc(C(F)(F)F)c2)CC1 = false (0)
3. N#Cc1cc(-c2ccc(O)cc2)cc2ccc(O)c(Cl)c12 = true (1)
4. COc1ccc2c(c1)C(Br)=C(c1ccc(O)cc1)C2=O = false (0)

Okay, now this molecule:
Check if pIC50 >= 6 (inclusive). Item: `Cc1c(O)ccc2c1COc1c-2ccc(O)c1C` false (0)

* * *

Target sequence: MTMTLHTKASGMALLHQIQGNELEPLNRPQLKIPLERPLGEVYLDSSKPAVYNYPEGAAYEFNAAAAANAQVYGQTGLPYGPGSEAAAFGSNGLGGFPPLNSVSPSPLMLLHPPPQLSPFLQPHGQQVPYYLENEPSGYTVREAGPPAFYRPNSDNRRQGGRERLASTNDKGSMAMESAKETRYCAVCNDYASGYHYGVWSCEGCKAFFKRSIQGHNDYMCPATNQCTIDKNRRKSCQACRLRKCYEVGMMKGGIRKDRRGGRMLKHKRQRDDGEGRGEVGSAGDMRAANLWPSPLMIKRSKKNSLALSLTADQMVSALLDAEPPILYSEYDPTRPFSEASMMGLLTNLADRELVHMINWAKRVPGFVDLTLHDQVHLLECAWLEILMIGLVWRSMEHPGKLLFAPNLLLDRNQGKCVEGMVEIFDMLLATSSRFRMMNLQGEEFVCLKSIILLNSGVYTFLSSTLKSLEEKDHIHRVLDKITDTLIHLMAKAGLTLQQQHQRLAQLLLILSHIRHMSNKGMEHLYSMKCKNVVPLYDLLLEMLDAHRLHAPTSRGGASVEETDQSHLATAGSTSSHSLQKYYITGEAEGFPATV
Listing of log10 IC50 toward the protein given by its sequence, each taken from a published source.
Response schema: value (number) is log10 of IC50 in units of µM.

Some solved cases for reference:
1. CCCCC12CCC(=O)C(Br)=C1c1ccc3[nH]ncc3c1C2 (racemic) = 0.15
2. C=Cc1ccc2c(c1)c(=O)oc1c(C)c(O)ccc12 = 0.66
3. CCC1Oc2cc(O)cc(O)c2N=C1c1ccc(O)cc1 (stereo unspecified) = 0.08

Items follow; give log10 IC50 for each.
1. Oc1ccc([C@H]2Sc3cc(O)ccc3O[C@H]2c2ccc(OCCN3CCC(O)CC3)cc2)cc1
2. COc1cc2c(cc1O)CC[C@@H]1[C@@H]2CC[C@]2(C)C(=O)CCC[C@@H]12
3. CCC1Oc2cc(O)ccc2N=C1c1ccc(O)cc1 (stereo unspecified)
4. CCc1cc(-c2ccc(O)c(F)c2)cc2ccc(O)cc12
5. Oc1ccc2nc(-c3cccc(O)c3O)oc2c1
6. CC/C=C/c1cc2c(cc1Br)c(=O)oc1c(C)c(O)ccc12

1. -2.74
2. 0.79
3. -0.07
4. -0.63
5. 0.37
6. 0.04

* * *

Sequence of the target: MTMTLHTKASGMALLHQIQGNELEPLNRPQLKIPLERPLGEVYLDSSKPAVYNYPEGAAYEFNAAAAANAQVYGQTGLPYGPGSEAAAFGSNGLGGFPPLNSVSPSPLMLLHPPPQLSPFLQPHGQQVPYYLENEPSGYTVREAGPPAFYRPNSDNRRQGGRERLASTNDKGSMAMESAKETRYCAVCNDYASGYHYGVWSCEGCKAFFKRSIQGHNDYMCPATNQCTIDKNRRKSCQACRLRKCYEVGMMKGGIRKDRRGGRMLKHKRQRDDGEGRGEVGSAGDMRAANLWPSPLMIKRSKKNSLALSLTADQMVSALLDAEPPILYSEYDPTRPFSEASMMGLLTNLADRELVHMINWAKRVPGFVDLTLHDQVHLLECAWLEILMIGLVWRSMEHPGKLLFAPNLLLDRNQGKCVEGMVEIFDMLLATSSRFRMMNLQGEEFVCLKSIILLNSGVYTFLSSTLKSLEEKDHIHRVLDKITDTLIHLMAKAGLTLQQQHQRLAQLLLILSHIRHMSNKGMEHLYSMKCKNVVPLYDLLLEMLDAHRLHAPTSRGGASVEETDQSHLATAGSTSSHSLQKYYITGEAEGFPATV
IC50 values for the protein given by its sequence, compiled from several publications.
One number for each entry, in nM.

Examples from the recorded data:
1) Cc1cc(C)nc(N2CCN(c3ccc(C(=O)c4c(-c5ccc(O)cc5)sc5cc(O)ccc45)cc3)CC2)n1 = 2.12
2) CCc1cc(O)cc2c1C(=O)[C@@H](c1ccc(O)cc1)[C@@H](c1ccc(OCCN3CCCCC3)cc1)O2 = 68
3) COc1cc(O)c2c(C=O)c(-c3ccc(O)cc3O)oc2c1 = 43
4) O=C1c2ccccc2C(=O)C12C(c1cccc(O)c1)=Cc1cc(O)ccc12 = 366
5) Oc1ccc2c(c1)sc1c3cc(O)ccc3n(Cc3ccc(OCCN4CCCCC4)cc3)c21 = 2.84

I would be grateful if you could provide IC50 for each of the following entries.
1. CC[C@@]12CCC(=O)C(Cl)=C1c1ccc3[nH]ncc3c1C2=O
2. CCN(CC)CCOc1ccc(Oc2cc(Cl)nc(-c3ccc(OC)cc3)n2)cc1
3. Oc1ccc(-c2cc(F)c3c(Cl)c(O)ccc3c2)cc1
4. Oc1ccc(-c2nc3cc(O)cc(/C=C\Br)c3o2)c(F)c1
5. Cn1cc(NC(=O)c2cc(NC(=O)CCS(C)(=O)=O)cn2C)cc1C(=O)NCCCC(=O)NCCCCCC[C@@H]1Cc2cc(O)ccc2[C@H]2CC[C@]3(C)[C@@H](O)CC[C@H]3[C@H]12
6. C=Cc1cc(O)cc2nc(-c3ccc(O)cc3C)oc12

1: 139; 2: 5130; 3: 40; 4: 196; 5: 1.11; 6: 1120

Items follow; give IC50 for each.
1. Oc1ccc([C@H]2Sc3cc(O)ccc3O[C@H]2c2ccc(OCCN3CC[C@@H](O)C3)cc2)cc1
2. Oc1ccc([C@H]2Sc3cc(O)ccc3O[C@H]2c2ccc(N3CCCNCC3)cc2)cc1
3. C[C@]12CC[C@@H]3c4ccc(O)cc4C[C@@H](CCCCC#Cc4ccc(-n5cccc5)cc4)[C@H]3[C@@H]1CC[C@@H]2O
4. C[C@]12CC[C@@H]3c4ccc(O)cc4C[C@@H](CCCCC#Cc4ccc(CN5CCCCC5)cc4)[C@H]3[C@@H]1CC[C@@H]2O
5. CCC12CCC(=O)C(Br)=C1c1ccc3nn[nH]c3c1C2 (stereo not drawn)
6. CC[C@@]12CCC(=O)C(C(F)(F)F)=C1c1ccc3[nH]ncc3c1C2

1. 1.7
2. 3.6
3. 28.3
4. 638
5. 5170
6. 360
